Reference source for all entries: patent US20210332145A1

- TARGET_OF_ASSAY: T1, human BCMA with a His tag (ACROBiosystems, Catalog No.: BCA-H522y) (human)
- T1 construct: Bought His-tagged recombinant protein; also called huBCMA-His; Recombinant human BCMA
- T1 chain: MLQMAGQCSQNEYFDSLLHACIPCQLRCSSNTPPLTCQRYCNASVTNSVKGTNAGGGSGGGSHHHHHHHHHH
- ASSAY_EXPLANATION: ELISA, plate-coated human BCMA-His
Kindly supply the reported EC50 values for the records listed here.
Give your result in ng/mL as a bare value.

I'd like to know its EC50. The binder in question is SCT-Aa04(m/m) (antibody, V domains shown, Full IgG format: mouse IgG1 heavy chain constant region, mouse kappa light chain constant region) VH: EVKLLQSGGGLVQPGGSLKLSCAASGIDFSRYWMSWVRRAPGKGLEWIGEINPDSSTINYAPSLKDKFIISRDNAKNTLYLQMSKVRSEDTALYYCASFYYDYDRGAAMDYWGQGTSVTVSS VL: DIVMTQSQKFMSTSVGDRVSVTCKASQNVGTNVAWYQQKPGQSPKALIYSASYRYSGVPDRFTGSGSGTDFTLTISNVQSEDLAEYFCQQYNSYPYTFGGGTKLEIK
2.32

One more binder: SCT-Aa06(h/h) (antibody, V domains shown, Full IgG format, chimeric: human IgG1 heavy chain constant region, human kappa light chain constant region) VH: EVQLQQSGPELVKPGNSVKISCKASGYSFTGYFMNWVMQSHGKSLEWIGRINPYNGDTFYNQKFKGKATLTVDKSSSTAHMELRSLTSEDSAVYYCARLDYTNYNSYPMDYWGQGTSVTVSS VL: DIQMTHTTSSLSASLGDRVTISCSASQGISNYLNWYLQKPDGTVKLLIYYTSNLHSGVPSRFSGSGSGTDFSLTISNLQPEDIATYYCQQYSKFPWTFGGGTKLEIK
2.78
